System: Opioid receptors; mu & delta
METHOD SUMMARY: Selectivity ratio expressed as Ki of delta opioid receptor to that of mu opioid receptor.
Assay type: protein assay
CONDITION SET: Cavia porcellus
A collection of molecules and their measured Selectivity
EXPERIMENTAL READOUT: Selectivity

# SMILES STRUCTURE, EXPERIMENTAL READOUT, RESULT
rows = [
    ("COc1ccc2c(c1)[C@@]13CCCC[C@H]1[C@H](NCC3)C2=O", "Selectivity", 0.14),
    ("N#Cc1ccc2c(c1)[C@@]13CCCC[C@H]1[C@@H](C2)N(CC1CCC1)CC3", "Selectivity", 51),
    ("O=C1c2ccc(O)cc2[C@@]23CCCC[C@H]2[C@@H]1N(CC1CCC1)CC3", "Selectivity", 79),
    ("Oc1ccc2c(c1)[C@@]13CCCC[C@H]1[C@@H](C2)N(CC1CCC1)CC3", "Selectivity", 26),
    ("C#CCN1CC[C@]23CCCC[C@H]2[C@H]1C(=O)c1ccc(O)cc13", "Selectivity", 12),
    ("O=C1c2ccc(OCC3CCC3)cc2[C@@]23CCCC[C@H]2[C@@H]1N(CC1CCC1)CC3", "Selectivity", "> 12"),
    ("O=C1c2ccc(O)cc2[C@@]23CCCC[C@H]2[C@@H]1N(CCF)CC3", "Selectivity", "> 18"),
    ("c1cc2c(cc1-c1nn[nH]n1)[C@@]13CCCC[C@H]1[C@@H](C2)N(CC1CCC1)CC3", "Selectivity", "> 9"),
    ("O=C1c2ccc(O)cc2[C@@]23CCCC[C@H]2[C@@H]1N(Cc1ccc2ccccc2c1)CC3", "Selectivity", "> 4.5"),
]

---

TARGET OR TEST SYSTEM: Kappa-type opioid receptor (Cavia porcellus)
Each record is given Criterion met if its reported Ki is strictly below 7 nM. Records at or above 7 nM are given Criterion not met.

# SMILES STRUCTURE, CATEGORY
data = [
    ("N#Cc1ccc2c(c1)[C@@]13CCCC[C@H]1[C@@H](C2)N(CC1CCC1)CC3", "Criterion met"),
    ("Oc1ccc2c(c1)[C@@]13CCCC[C@H]1[C@@H](C2)N(CC1CCC1)CC3", "Criterion met"),
    ("O=C1c2ccc(O)cc2[C@@]23CCCC[C@H]2[C@@H]1N(CC1CCC1)CC3", "Criterion met"),
    ("O=C1c2ccc(OCC3CCC3)cc2[C@@]23CCCC[C@H]2[C@@H]1N(CC1CCC1)CC3", "Criterion not met"),
    ("c1cc2c(cc1-c1nnn[nH]1)[C@@]13CCCC[C@H]1[C@@H](C2)N(CC1CCC1)CC3", "Criterion not met"),
    ("CC(C)=CCN1CC[C@]23CCCC[C@H]2[C@H]1C(=O)c1ccc(O)cc13", "Criterion not met"),
    ("O=C1c2ccc(O)cc2[C@@]23CCCC[C@H]2[C@@H]1N(CCCF)CC3", "Criterion met"),
    ("CN1CC[C@]23CCCC[C@H]2[C@H]1Cc1ccc(-c2nnn[nH]2)cc13", "Criterion not met"),
    ("CN1CC[C@]23CCCC[C@H]2[C@H]1Cc1ccc(C(N)=O)cc13", "Criterion met"),
]

---

Tested on: Opioid receptors; mu & delta
METHOD SUMMARY: Selectivity ratio expressed as Ki of delta opioid receptor to that of mu opioid receptor.
Assay type: protein assay
CONDITION SET: Cavia porcellus
Each record is given TRUE if its reported Selectivity is strictly below 3. Records at or above 3 are given FALSE.

# SMILES STRUCTURE, CATEGORY
records = [
    ("O=C1c2ccc(O)cc2[C@@]23CCCC[C@H]2[C@@H]1N(CC1CC1)CC3", "TRUE"),
    ("CN1CC[C@]23CCCC[C@H]2[C@H]1Cc1ccc(C(N)=O)cc13", "FALSE"),
    ("O=C1c2ccc(O)cc2[C@@]23CCCC[C@H]2[C@@H]1N(C[C@@H]1CCCO1)CC3", "TRUE"),
    ("CN1CC[C@]23CCCC[C@H]2[C@H]1Cc1ccc(O)cc13", "FALSE"),
    ("NCc1ccc2c(c1)[C@@]13CCCC[C@H]1[C@@H](C2)N(CC1CCC1)CC3", "FALSE"),
]

---

TARGET OR TEST SYSTEM: Kappa-type opioid receptor (Cavia porcellus)

# SMILES STRUCTURE, Ki
records = [
    ("COc1ccc2c(c1)[C@@]13CCCC[C@H]1[C@H](NCC3)C2=O", "390 nM"),
    ("NC(=O)c1ccc2c(c1)[C@@]13CCCC[C@H]1[C@@H](C2=O)N(CC1CCC1)CC3", "2.7 nM"),
    ("O=C(Nc1ccc2c(c1)[C@@]13CCCC[C@H]1[C@@H](C2=O)N(CC1CCC1)CC3)c1ccccc1", "7.7 nM"),
    ("N#Cc1ccc2c(c1)[C@@]13CCCC[C@H]1[C@@H](C2=O)N(CC1CCC1)CC3", "400 nM"),
    ("O=C1c2ccc(O)cc2[C@@]23CCCC[C@H]2[C@@H]1N(CCF)CC3", "250 nM"),
]

---

TARGET OR TEST SYSTEM: Kappa-type opioid receptor (Cavia porcellus, UniProt P41144)
Sequence (P41144 whole entry): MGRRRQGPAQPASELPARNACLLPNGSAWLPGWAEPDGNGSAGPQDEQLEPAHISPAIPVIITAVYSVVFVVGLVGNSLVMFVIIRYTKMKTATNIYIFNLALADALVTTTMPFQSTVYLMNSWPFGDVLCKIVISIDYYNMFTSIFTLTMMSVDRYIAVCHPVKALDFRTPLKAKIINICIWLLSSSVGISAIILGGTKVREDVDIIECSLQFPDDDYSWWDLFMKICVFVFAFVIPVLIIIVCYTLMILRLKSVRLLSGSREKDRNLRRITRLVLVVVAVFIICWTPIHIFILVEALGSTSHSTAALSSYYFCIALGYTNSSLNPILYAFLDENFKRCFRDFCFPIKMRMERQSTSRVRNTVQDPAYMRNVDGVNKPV
Each record is given criterion met if its reported Ki is strictly below 9 nM. Records at or above 9 nM are given criterion not met.

# SMILES STRUCTURE, CATEGORY
data = [
    ("O=C1c2ccc(O)cc2[C@@]23CCCC[C@H]2[C@@H]1N(C[C@@H]1CCCO1)CC3", "criterion met"),
    ("CN1CC[C@]23CCCC[C@H]2[C@H]1Cc1ccc(N)cc13", "criterion not met"),
    ("CN1CC[C@]23CCCC[C@H]2[C@H]1C(=O)c1ccc(O)cc13", "criterion not met"),
    ("Nc1ccc2c(c1)[C@@]13CCCC[C@H]1[C@@H](C2)N(CC1CC1)CC3", "criterion met"),
    ("C#CCOc1ccc2c(c1)[C@@]13CCCC[C@H]1[C@@H](C2=O)N(CC#C)CC3", "criterion not met"),
    ("O=C1c2ccc(-c3nnn[nH]3)cc2[C@@]23CCCC[C@H]2[C@@H]1N(CC1CCC1)CC3", "criterion not met"),
    ("CN1CC[C@]23CCCC[C@H]2[C@H]1Cc1ccc(C#N)cc13", "criterion not met"),
    ("NCc1ccc2c(c1)[C@@]13CCCC[C@H]1[C@@H](C2)N(CC1CCC1)CC3", "criterion met"),
    ("O=C1c2ccc(O)cc2[C@@]23CCCC[C@H]2[C@@H]1N(CC1CC1)CC3", "criterion not met"),
    ("Nc1ccc2c(c1)[C@@]13CCCC[C@H]1[C@@H](C2)N(CC1CCC1)CC3", "criterion met"),
    ("O=C(O)c1ccc2c(c1)[C@@]13CCCC[C@H]1[C@@H](C2=O)N(CC1CCC1)CC3", "criterion not met"),
    ("NC(=O)c1ccc2c(c1)[C@@]13CCCC[C@H]1[C@@H](C2)N(CC1CC1)CC3", "criterion met"),
    ("C#CCN1CC[C@]23CCCC[C@H]2[C@H]1C(=O)c1ccc(O)cc13", "criterion not met"),
    ("NC(=O)c1ccc2c(c1)[C@@]13CCCC[C@H]1[C@@H](C2)N(CC1CCC1)CC3", "criterion met"),
    ("O=C1c2ccc(O)cc2[C@@]23CCCC[C@H]2[C@@H]1N(CCc1ccccc1)CC3", "criterion met"),
    ("Nc1ccc2c(c1)[C@@]13CCCC[C@H]1[C@@H](C2=O)N(CC1CCC1)CC3", "criterion met"),
    ("O=C1c2ccc(O)cc2[C@@]23CCCC[C@H]2[C@@H]1NCC3", "criterion not met"),
    ("CN1CC[C@]23CCCC[C@H]2[C@H]1Cc1ccc(CN)cc13", "criterion not met"),
    ("O=C1c2ccc(O)cc2[C@@]23CCCC[C@H]2[C@@H]1N(Cc1ccc2ccccc2c1)CC3", "criterion not met"),
]

---

TARGET OR TEST SYSTEM: Mu-type opioid receptor (Cavia porcellus)
Sequence (P97266 whole entry): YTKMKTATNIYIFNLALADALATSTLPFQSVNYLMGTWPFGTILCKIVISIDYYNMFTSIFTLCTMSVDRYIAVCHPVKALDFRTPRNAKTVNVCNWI
EXPERIMENTAL READOUT: log10 of Ki (log10 of the value in nM)

# SMILES STRUCTURE, TARGET OR TEST SYSTEM, log10 of Ki
measured = [
    ("Nc1ccc2c(c1)[C@@]13CCCC[C@H]1[C@@H](C2=O)N(CC1CCC1)CC3", "Mu-type opioid receptor (Cavia porcellus)", 1.36),
    ("Nc1ccc2c(c1)[C@@]13CCCC[C@H]1[C@@H](C2)N(CC1CC1)CC3", "Mu-type opioid receptor (Cavia porcellus)", 0.11),
    ("CN1CC[C@]23CCCC[C@H]2[C@H]1Cc1ccc(N)cc13", "Mu-type opioid receptor (Cavia porcellus)", 0.90),
    ("Nc1ccc2c(c1)[C@@]13CCCC[C@H]1[C@@H](C2)N(CC1CCC1)CC3", "Mu-type opioid receptor (Cavia porcellus)", 0.57),
    ("NCc1ccc2c(c1)[C@@]13CCCC[C@H]1[C@@H](C2)N(CC1CCC1)CC3", "Mu-type opioid receptor (Cavia porcellus)", 0.93),
    ("O=C(Nc1ccc2c(c1)[C@@]13CCCC[C@H]1[C@@H](C2=O)N(CC1CCC1)CC3)c1ccccc1", "Mu-type opioid receptor (Cavia porcellus)", 0.64),
    ("O=C1c2ccc(O)cc2[C@@]23CCCC[C@H]2[C@@H]1N(CCCF)CC3", "Mu-type opioid receptor (Cavia porcellus)", 1.30),
    ("O=C1c2ccc(-c3nnn[nH]3)cc2[C@@]23CCCC[C@H]2[C@@H]1N(CC1CCC1)CC3", "Mu-type opioid receptor (Cavia porcellus)", 2.36),
    ("COc1ccc2c(c1)[C@@]13CCCC[C@H]1[C@H](NCC3)C2=O", "Mu-type opioid receptor (Cavia porcellus)", 2.04),
    ("CN1CC[C@]23CCCC[C@H]2[C@H]1Cc1ccc(-c2nnn[nH]2)cc13", "Mu-type opioid receptor (Cavia porcellus)", 2.58),
    ("O=C1c2ccc(O)cc2[C@@]23CCCC[C@H]2[C@@H]1N(CC1CCC1)CC3", "Mu-type opioid receptor (Cavia porcellus)", 0.52),
    ("c1cc2c(cc1-c1nnn[nH]1)[C@@]13CCCC[C@H]1[C@@H](C2)N(CC1CCC1)CC3", "Mu-type opioid receptor (Cavia porcellus)", 3.04),
    ("O=C1c2ccc(O)cc2[C@@]23CCCC[C@H]2[C@@H]1N(Cc1ccc2ccccc2c1)CC3", "Mu-type opioid receptor (Cavia porcellus)", 3.34),
    ("O=C1c2ccc(OCC3CCC3)cc2[C@@]23CCCC[C@H]2[C@@H]1N(CC1CCC1)CC3", "Mu-type opioid receptor (Cavia porcellus)", 2.90),
    ("C#CCOc1ccc2c(c1)[C@@]13CCCC[C@H]1[C@@H](C2=O)N(CC#C)CC3", "Mu-type opioid receptor (Cavia porcellus)", 2.85),
    ("CN1CC[C@]23CCCC[C@H]2[C@H]1Cc1ccc(C(N)=O)cc13", "Mu-type opioid receptor (Cavia porcellus)", -1.14),
    ("C#CCN1CC[C@]23CCCC[C@H]2[C@H]1C(=O)c1ccc(O)cc13", "Mu-type opioid receptor (Cavia porcellus)", 2.28),
    ("NC(=O)c1ccc2c(c1)[C@@]13CCCC[C@H]1[C@@H](C2=O)N(CC1CCC1)CC3", "Mu-type opioid receptor (Cavia porcellus)", 0.40),
    ("CN1CC[C@]23CCCC[C@H]2[C@H]1Cc1ccc(C#N)cc13", "Mu-type opioid receptor (Cavia porcellus)", 1.30),
    ("N#Cc1ccc2c(c1)[C@@]13CCCC[C@H]1[C@@H](C2)N(CC1CCC1)CC3", "Mu-type opioid receptor (Cavia porcellus)", 1.57),
    ("O=C1c2ccc(O)cc2[C@@]23CCCC[C@H]2[C@@H]1N(CC1CC1)CC3", "Mu-type opioid receptor (Cavia porcellus)", 2.38),
]
